src = ChEMBL document CHEMBL4387734

Parameter: metabolised at 0.25 h, 1 µM. Scope: all listed entries.
Test: Metabolic stability in mouse liver microsomes assessed as compound metabolism at 1 uM incubated for 15 mins
Format: ADME, Microsome
Settings: read-out: Drug metabolism
Note: unit % is implicit; provide only the numeric part.

COc1c(C#N)ccc2[nH]c(-c3cn4c(n3)[C@H](c3cccc(F)c3C)OCC4)cc12 = 27

From here, focus on the item given below.
Q. metabolised at 0.25 h, 1 µM for `COc1nc(-c2nc(Nc3cc(F)cc(C(F)(F)F)c3)n(C)n2)ccc1-n1cnc(C)c1` ?
A. 0

----------
Molecular target: Cytochrome P450 2C19 (Homo sapiens)
Sequence (P33261 whole entry): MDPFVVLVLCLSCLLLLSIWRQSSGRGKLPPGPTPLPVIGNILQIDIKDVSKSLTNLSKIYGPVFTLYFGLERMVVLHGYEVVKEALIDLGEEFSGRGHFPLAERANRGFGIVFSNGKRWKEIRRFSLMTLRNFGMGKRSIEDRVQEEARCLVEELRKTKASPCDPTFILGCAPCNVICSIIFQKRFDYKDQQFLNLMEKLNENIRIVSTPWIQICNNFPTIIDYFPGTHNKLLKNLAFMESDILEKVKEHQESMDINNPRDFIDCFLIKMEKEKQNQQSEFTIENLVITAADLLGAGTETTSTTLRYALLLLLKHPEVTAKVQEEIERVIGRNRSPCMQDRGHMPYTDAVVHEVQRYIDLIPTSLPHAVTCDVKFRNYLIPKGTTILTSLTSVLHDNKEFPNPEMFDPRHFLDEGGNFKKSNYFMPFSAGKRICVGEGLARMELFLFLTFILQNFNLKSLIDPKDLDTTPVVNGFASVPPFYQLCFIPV
parameter: pIC50
FYI, pIC50 means -log10 of a concentration in mol per litre.

Q. pIC50 for `COc1c(C#N)ccc2[nH]c(-c3cn4c(n3)[C@H](c3cccc(F)c3C)OCC4)cc12` ?
A. 5.08

----------
Test: Free drug concentration in mouse brain
Assay type: ADME, tissue-based
Settings: in vivo
# strict inequality: Drug uptake(free) < 0.03 µM yields Met, everything else yields Not met

Q. Confirm or reject: Drug uptake(free) of `COc1c(C#N)ccc2[nH]c(-c3cn4c(n3)[C@H](c3cccc(F)c3C)OCC4)cc12` lies strictly below 0.03 µM
A. Met

Q. Please answer likewise for `COc1c(C#N)ccc2[nH]c(-c3nc4n(n3)CCO[C@H]4c3cccc(F)c3C)cc12`
A. Met

Q. Please answer likewise for `COc1c(C#N)ccc2[nH]c(-c3cn4c(n3)[C@H](c3ccc(F)cc3C)OCC4)cc12`
A. Met

Q. Please answer likewise for `COc1nc(-c2nc(Nc3cc(F)cc(C(F)(F)F)c3)n(C)n2)ccc1-n1cnc(C)c1`
A. Not met

Q. Please answer likewise for COc1c(C#N)ccc2[nH]c(-c3cn4c(n3)[C@H](c3ccccc3C(F)(F)F)OCC4)cc12 (single isomer, unassigned)
A. Not met

Q. Please answer likewise for `COc1c(C#N)ccc2[nH]c(-c3cn4c(n3)[C@H](c3ccccc3Cl)OCC4)cc12`
A. Not met

Q. Please answer likewise for `COc1c(C#N)ccc2[nH]c(-c3nc4n(n3)CCO[C@H]4c3cccc(F)c3C(F)(F)F)cc12`
A. Met

----------
Assay: Metabolic stability in human liver microsomes assessed as compound metabolism at 1 uM incubated for 15 mins
Format: ADME, Microsome
Settings: read-out: Drug metabolism
parameter: metabolised at 0.25 h, 1 µM
Just the number plus its unit, please.

COc1c(C#N)ccc2[nH]c(-c3cn4c(n3)[C@H](c3cccc(F)c3C)OCC4)cc12 = 18%

From here, focus on the item given below.
Q. metabolised at 0.25 h, 1 µM for `COc1nc(-c2nc(Nc3cc(F)cc(C(F)(F)F)c3)n(C)n2)ccc1-n1cnc(C)c1` ?
A. 4%

----------
Molecular target: Cytochrome P450 1A2 (Homo sapiens, UniProt P05177)
Sequence (P05177 whole entry): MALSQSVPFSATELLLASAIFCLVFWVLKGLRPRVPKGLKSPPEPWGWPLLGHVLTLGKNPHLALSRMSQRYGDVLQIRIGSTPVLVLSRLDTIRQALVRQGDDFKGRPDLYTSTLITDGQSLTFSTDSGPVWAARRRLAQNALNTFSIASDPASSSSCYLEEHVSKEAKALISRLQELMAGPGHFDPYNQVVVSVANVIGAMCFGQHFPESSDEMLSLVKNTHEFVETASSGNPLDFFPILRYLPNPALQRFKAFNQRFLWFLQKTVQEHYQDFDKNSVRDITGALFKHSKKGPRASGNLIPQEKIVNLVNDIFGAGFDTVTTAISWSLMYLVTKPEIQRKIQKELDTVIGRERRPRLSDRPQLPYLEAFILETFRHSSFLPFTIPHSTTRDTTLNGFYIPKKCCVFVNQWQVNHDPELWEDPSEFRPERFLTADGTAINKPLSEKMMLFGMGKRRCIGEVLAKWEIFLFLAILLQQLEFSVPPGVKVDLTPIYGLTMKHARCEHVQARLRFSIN
Test: Inhibition of CYP1A2 (unknown origin)
Assay type: ADME
parameter: IC50

Q. Form: Entry = `COc1c(C#N)ccc2[nH]c(-c3cn4c(n3)[C@H](c3cccc(F)c3C)OCC4)cc12` | System = Cytochrome P450 1A2 (Homo sapiens, UniProt P05177) | IC50 = ____
A. > 10 µM

----------
Test: Cmax in dog at 10 mg/kg, po after 1.6 hrs
Format: ADME, organism-based, Canis lupus familiaris
Parameters: dose 10 mg/kg, route oral
Conditions: in vivo
parameter: Cmax (nM)
Note: unit nM is implicit; provide only the numeric part.

Q. Cmax for `COc1c(C#N)ccc2[nH]c(-c3cn4c(n3)[C@H](c3cccc(F)c3C)OCC4)cc12` ?
A. 2400

----------
Target: Voltage-gated inwardly rectifying potassium channel KCNH2 (Homo sapiens, UniProt Q12809)
Sequence (Q12809 whole entry): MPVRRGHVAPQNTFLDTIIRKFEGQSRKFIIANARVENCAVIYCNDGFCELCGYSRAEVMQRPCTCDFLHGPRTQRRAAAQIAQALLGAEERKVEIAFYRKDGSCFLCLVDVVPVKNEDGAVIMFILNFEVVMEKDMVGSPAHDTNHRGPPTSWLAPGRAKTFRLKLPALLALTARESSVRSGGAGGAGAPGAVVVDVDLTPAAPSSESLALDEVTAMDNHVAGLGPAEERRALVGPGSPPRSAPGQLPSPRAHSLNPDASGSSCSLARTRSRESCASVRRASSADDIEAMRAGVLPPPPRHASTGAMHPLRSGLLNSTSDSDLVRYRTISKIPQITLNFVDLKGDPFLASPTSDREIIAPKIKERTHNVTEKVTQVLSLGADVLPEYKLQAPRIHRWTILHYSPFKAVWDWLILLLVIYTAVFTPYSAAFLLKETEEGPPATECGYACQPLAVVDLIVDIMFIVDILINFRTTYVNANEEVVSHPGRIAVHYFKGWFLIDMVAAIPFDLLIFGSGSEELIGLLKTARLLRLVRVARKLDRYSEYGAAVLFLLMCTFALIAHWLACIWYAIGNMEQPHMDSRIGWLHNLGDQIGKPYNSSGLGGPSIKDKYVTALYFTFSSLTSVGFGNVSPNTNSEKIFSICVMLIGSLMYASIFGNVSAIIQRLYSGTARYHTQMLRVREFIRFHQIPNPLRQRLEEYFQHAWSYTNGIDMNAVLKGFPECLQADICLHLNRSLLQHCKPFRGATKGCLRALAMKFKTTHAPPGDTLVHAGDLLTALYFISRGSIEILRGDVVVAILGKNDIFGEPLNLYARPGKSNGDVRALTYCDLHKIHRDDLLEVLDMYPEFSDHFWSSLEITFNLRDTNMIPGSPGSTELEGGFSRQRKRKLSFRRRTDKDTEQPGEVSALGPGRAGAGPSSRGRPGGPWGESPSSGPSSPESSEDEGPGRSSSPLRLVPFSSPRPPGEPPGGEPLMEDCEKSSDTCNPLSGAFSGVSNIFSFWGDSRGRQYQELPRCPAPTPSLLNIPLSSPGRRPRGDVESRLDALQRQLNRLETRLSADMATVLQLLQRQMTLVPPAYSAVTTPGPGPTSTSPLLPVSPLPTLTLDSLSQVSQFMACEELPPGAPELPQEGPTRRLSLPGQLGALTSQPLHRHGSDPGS
parameter: pIC50
FYI, pIC50 means -log10 of a concentration in mol per litre.

Q. pIC50 for `COc1c(C#N)ccc2[nH]c(-c3cn4c(n3)[C@H](c3cccc(F)c3C)OCC4)cc12` ?
A. 5.28

----------
Assay: Drug concentration in mouse brain at 30 mg/kg, po measured after 4 hrs by LC/MS/MS method
Format: ADME, organism-based
Conditions: read-out: Drug uptake
parameter: log10 of concentration at 4 h (log10 of the value in µM)
Friendly reminder: values = log10 of concentration at 4 h, unit µM.

Check out these entries, answers already filled in.
COc1c(C#N)ccc2[nH]c(-c3nc4n(n3)CCO[C@H]4c3cccc(F)c3C(F)(F)F)cc12 = 0.98
COc1c(C#N)ccc2[nH]c(-c3cn4c(n3)[C@H](c3cc(C(F)(F)F)ccc3F)OCC4)cc12 = 1.21
COc1c(C#N)ccc2[nH]c(-c3cn4c(n3)[C@H](c3c(F)cccc3C(F)(F)F)OCC4)cc12 = 1.27

Q. log10 of concentration at 4 h for `COc1c(C#N)ccc2[nH]c(-c3nc4n(n3)CCO[C@H]4c3ccc(F)cc3C)cc12` ?
A. 0.23

Q. Please answer likewise for `COc1c(C#N)ccc2[nH]c(-c3nc4n(n3)CCO[C@H]4c3cccc(F)c3C)cc12`
A. 0.74

Q. Please answer likewise for `COc1nc(-c2nc(Nc3cc(F)cc(C(F)(F)F)c3)n(C)n2)ccc1-n1cnc(C)c1`
A. 1.15

Q. Please answer likewise for `COc1c(C#N)ccc2[nH]c(-c3nc4n(n3)CCO[C@H]4c3ccccc3C(F)(F)F)cc12`
A. 1.02

Q. Please answer likewise for `COc1c(C#N)ccc2[nH]c(-c3cn4c(n3)[C@H](c3ccc(F)cc3C)OCC4)cc12`
A. 0.84

Q. Please answer likewise for COc1c(C#N)ccc2[nH]c(-c3nc4n(n3)CCCC4c3ccc(F)cc3C)cc12 (racemic)
A. -0.16

Q. Please answer likewise for COc1c(C#N)ccc2[nH]c(-c3cn4c(n3)C(c3ccc(F)cc3C)CCC4)cc12 (racemic)
A. 0.28

Q. Please answer likewise for COc1c(C#N)ccc2[nH]c(-c3cn4c(n3)[C@H](c3ccccc3C(F)(F)F)OCC4)cc12 (single isomer, unassigned)
A. 1.21

Q. Please answer likewise for `COc1c(C#N)ccc2[nH]c(-c3cn4c(n3)[C@H](c3ccccc3Cl)OCC4)cc12`
A. 1.38

----------
Biological target: Gamma-secretase
Experiment: Inhibition of gamma secretase in human SKNBE2 cells expressing human APP695 assessed as reduction in Abeta42 levels incubated for 18 hrs by sandwich ELISA
parameter: pIC50
FYI, pIC50 means -log10 of a concentration in mol per litre.

COc1c(C#N)ccc2[nH]c(-c3cn4c(n3)C(c3ccccc3Cl)CC(O)(CO)C4)cc12 (centres undefined) = 7.41
COc1c(C#N)ccc2[nH]c(-c3cn4c(n3)[C@H](c3ccccc3Cl)C[C@@H](C)C4)cc12 (racemic) = 7.82
COc1c(C#N)ccc2[nH]c(-c3cn4c(n3)[C@H](c3cccc(F)c3C)OCC4)cc12 = 7.85

From here, focus on the item given below.
Q. pIC50 for `COc1c(C#N)ccc2[nH]c(-c3cn4c(n3)[C@@H](c3ccccc3C(F)(F)F)OCC4)cc12` ?
A. 6.46

----------
Parameter: log10 IC50. Scope: all listed entries.
Biological target: Gamma-secretase
Assay: Inhibition of gamma secretase in human SKNBE2 cells expressing human APP695 assessed as reduction in Abeta42 levels incubated for 18 hrs by sandwich ELISA
Friendly reminder: values = log10 of IC50, unit µM.

COc1c(C#N)ccc2[nH]c(-c3cn4c(n3)[C@H](c3ccccc3Cl)OCC4)cc12 = -1.59
COc1c(C#N)ccc2[nH]c(-c3nc4n(n3)CCCC4c3ccccc3C(F)(F)F)cc12 (racemic) = -1.44
N#Cc1ccc2cc(-c3nc4n(n3)CCCC4c3ccccc3C(F)(F)F)[nH]c2c1 (racemic) = 0.60
COc1c(C#N)ccc2[nH]c(-c3cn4c(n3)[C@H](c3ccccc3C(F)(F)F)OCC4)cc12 (single isomer, unassigned) = -1.74
N#Cc1ccc2[nH]c(-c3nc4n(n3)CCCC4c3ccccc3C(F)(F)F)cc2c1 (racemic) = -0.93
COc1c(C#N)ccc2[nH]c(-c3cn4c(n3)[C@H](c3cc(C(F)(F)F)ccc3F)OCC4)cc12 = -1.39
Cn1c(-c2nc3n(n2)CCCC3c2ccccc2C(F)(F)F)cc2cc(C#N)ccc21 (racemic) = 0.60

Q. log10 IC50 for `COc1c(C#N)ccc2[nH]c(-c3nc4n(n3)CCO[C@H]4c3cccc(F)c3C)cc12` ?
A. -1.51

----------
Molecular target: Gamma-secretase
Assay: Inhibition of gamma secretase in human SKNBE2 cells expressing human APP695 assessed as reduction in Abeta42 levels incubated for 18 hrs by sandwich ELISA
Parameter: IC50. Scope: all listed entries.
Note: unit µM is implicit; provide only the numeric part.

Check out these entries, answers already filled in.
COc1c(C#N)ccc2[nH]c(-c3nc4n(n3)CCO[C@H]4c3cccc(F)c3C(F)(F)F)cc12 = 0.059
COc1cc2[nH]c(-c3nc4n(n3)CCCC4c3ccccc3C(F)(F)F)cc2cc1C#N (racemic) = 0.107
COc1c(C#N)ccc2[nH]c(-c3nc4n(n3)CCO[C@H]4c3ccc(F)cc3C)cc12 = 0.032

Q. IC50 for `COCc1ccccc1[C@@H]1OCCn2cc(-c3cc4c(OC)c(C#N)ccc4[nH]3)nc21` ?
A. 0.11

Q. Please answer likewise for COc1c(C#N)ccc2[nH]c(-c3cn4c(n3)C(C(C)c3ccc(F)cc3)OCC4)cc12 (centres undefined)
A. 0.219

Q. Please answer likewise for COc1c(C#N)ccc2[nH]c(-c3nc4n(n3)CCOC4c3ccccc3C(F)(F)F)cc12 (racemic)
A. 0.072

Q. Please answer likewise for `COc1c(C#N)ccc2[nH]c(-c3nc4n(n3)CCO[C@@H]4c3ccccc3C(F)(F)F)cc12`
A. 0.603

Q. Please answer likewise for `COc1nc(-c2nc(Nc3cc(F)cc(C(F)(F)F)c3)n(C)n2)ccc1-n1cnc(C)c1`
A. 0.019

Q. Please answer likewise for `COc1c(C#N)ccc2[nH]c(-c3cn4c(n3)[C@H](c3ccccc3Cl)O[C@H](C)C4)cc12`
A. 0.017
